Where these numbers come from: ChEMBL document CHEMBL4303122

The reader will find reported Hit score values listed item by item below.
# System: SARS-CoV-2
# ASSAY TEXT: Antiviral activity against SARS-CoV-2 (USA-WA1/2020 strain) measured by imaging in HRCE cells at MOI 0.4 after 96 hrs (reported as hit score from 0-1 for on-disease vs off-disease activity: scores >0.6 considered hits)
# Format: functional, Homo sapiens
The full ranking holds about 1,600 compounds; the median of “Hit score” is about 0.13, and the highest 2% start at about 0.46. The list comes from a sample in which the highest values are over-represented; it also holds close analogues and randomly drawn compounds.
Lab note: record the figure alone, no unit after it.

Some solved entries appear below for comparison.
CC(C)NC[C@H](O)COc1ccc(CCOCC2CC2)cc1 : 0.4949
OC(CCN1CCCCC1)(c1ccccc1)C1CCCCC1 (centres undefined) : 0.4673
CC(C)NCC(O)COc1ccc(CCOCC2CC2)cc1 (centres undefined) : 0.2742
OC(CCN1CCCC1)(c1ccccc1)C1CCCCC1 (centres undefined) : 0.2175
CCCCCCCC/C=C/CCCCCCCC(=O)OC[C@H]1O[C@@H](n2ccc(N)nc2=O)C(F)(F)[C@@H]1O [GEMCITABINE ELAIDATE] : 0.08488
CC(=O)O[C@]1(C(C)=O)CC[C@H]2[C@@H]3C=C(C)C4=CC(=O)CC[C@@H]4[C@H]3CC[C@@]21C [NOMEGESTROL ACETATE] : 0.2782
C=C1c2c(Cl)ccc(O)c2C(=O)C2=C(O)[C@]3(O)C(=O)C(C(N)=O)=C(O)[C@@H](N(C)C)[C@@H]3[C@@H](O)[C@H]12.O=C(O)c1cc(S(=O)(=O)O)ccc1O [MECLOCYCLINE SULFOSALICYLATE] : 0.1338
COc1cc2c(Oc3ccc4[nH]c(C)cc4c3F)ccnc2cc1OCC1(N)CC1 : 0.165

[Q] Name the recorded Hit score of the item NCCCC[C@H](N)C(=O)O.N[C@@H](CSCC(=O)O)C(=O)O.O in your answer.
[A] 0.1749

[Q] Return reported Hit score. Input compound: CO[C@H]1C(=O)[C@]2(C)[C@@H](OC)C[C@H]3OC[C@@]3(OC(C)=O)[C@H]2[C@H](OC(=O)c2ccccc2)[C@]2(O)C[C@H](OC(=O)[C@H](O)[C@@H](NC(=O)OC(C)(C)C)c3ccccc3)C(C)=C1C2(C)C
[A] -0.8282

[Q] State its Hit score for this compound: N#Cc1c(N2C[C@@H]3NCCO[C@H]3C2)c(F)cc2c(=O)c(C(=O)O)cn(C3CC3)c12
[A] 0.04952

[Q] Using the record for C[C@H]1[C@H](OC(=O)CCC(=O)O)O[C@@H]2O[C@@]3(C)CC[C@H]4[C@H](C)CC[C@@H]1[C@@]24OO3 [ARTESUNATE] , state its measured Hit score.
[A] 0.2142

[Q] Provide measured Hit score value, entry: Cc1c(O)cccc1C(=O)N[C@@H](CSc1ccccc1)[C@H](O)CN1C[C@H]2CCCC[C@H]2C[C@H]1C(=O)NC(C)(C)C
[A] 0.1621

[Q] Complete the entry with Hit score for CCCCCCCCCCCCCCCC(=O)O[C@@H]1[C@@H](O)[C@@H](O)[C@@H]([C@H](NC(=O)[C@@H]2C[C@@H](CCC)CN2C)[C@H](C)Cl)O[C@@H]1SC [CLINDAMYCIN PALMITATE]
[A] 0.1881
